Target Or System: human V1a receptor (Homo sapiens, UniProt P37288)
Sequence (P37288 whole entry): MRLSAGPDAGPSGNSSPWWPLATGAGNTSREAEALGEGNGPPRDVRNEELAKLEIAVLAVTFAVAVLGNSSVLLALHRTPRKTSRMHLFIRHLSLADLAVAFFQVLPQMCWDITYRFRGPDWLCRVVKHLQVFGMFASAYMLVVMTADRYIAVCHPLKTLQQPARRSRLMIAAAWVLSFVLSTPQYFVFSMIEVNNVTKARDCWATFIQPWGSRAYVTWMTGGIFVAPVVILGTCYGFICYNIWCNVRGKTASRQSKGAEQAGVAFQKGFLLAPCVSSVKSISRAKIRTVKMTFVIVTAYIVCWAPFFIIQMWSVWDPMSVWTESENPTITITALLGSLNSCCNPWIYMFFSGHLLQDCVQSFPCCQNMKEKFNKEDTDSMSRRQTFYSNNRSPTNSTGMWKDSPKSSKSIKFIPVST
pKi: −log10 of the molar value.

Compound | Target Or System | pKi
N#CCc1cc(Cl)cc2cc(C(=O)N3CCC(n4c(=O)[nH]c5ccccc54)CC3)[nH]c12 [Example 46] | human V1a receptor (Homo sapiens, UniProt P37288) | 7.45
N#CCn1c(C(=O)N2CCC(n3c(=O)[nH]c4ccccc43)CC2)cc2cc(Br)ccc21 [Example 3] | human V1a receptor (Homo sapiens, UniProt P37288) | 7.92
CCOC(=O)Cc1c(C(=O)N2CCC(n3c(=O)[nH]c4ccccc43)CC2)[nH]c2ccccc12 [Example 14] | human V1a receptor (Homo sapiens, UniProt P37288) | 7.38
O=C(c1cc2cc(Cl)ccc2[nH]1)N1CCC(N2C(=O)Cc3ccccc32)CC1 [Example 47] | human V1a receptor (Homo sapiens, UniProt P37288) | 7.19
